Origin of the recorded values: patent US20230081426A1

System Tested: G12D-mutant human KRAS (amino acid residues 1-188) (Homo sapiens, UniProt P01116, G12D)
Construct: G12D or G12C-mutant human KRAS (amino acid residues 1-188) with FLAG tag; made in house; host or cells: E. coli
Sequence (P01116 1-188 isoform P01116-2 G12D): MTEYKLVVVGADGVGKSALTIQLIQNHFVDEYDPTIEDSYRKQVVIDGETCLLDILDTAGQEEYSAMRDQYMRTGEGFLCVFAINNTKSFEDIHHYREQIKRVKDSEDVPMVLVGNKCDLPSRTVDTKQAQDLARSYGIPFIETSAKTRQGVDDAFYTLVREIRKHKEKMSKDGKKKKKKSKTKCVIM
Protocol Description: KRAS Binding Disruption Assay (AlphaScreen; biotinylated KRpep-2d analogue or RAF1-RBD), G12D
Condition: KRAS G12D; geometric mean; read-out: KRAS GMean IC50 (uM) MUTATION: G12D
Assay Metric: IC50

Known IC50 results, listed for orientation:
COc1cccc2ncnc(-c3ccc4c(N5C[C@H]6CC[C@@H](C5)N6)nc(OC[C@@H]5CCCN5C)nc4c3F)c12 = 100 to 1000 µM
CC1(O)CN(c2nc(N3C[C@H]4CC[C@@H](C3)N4)c3ccc(-c4cc(O)cc5ccccc45)c(F)c3n2)C1 = 0.0001 to 10 µM
CN1CCC[C@H]1COc1nc(N2[C@@H]3CC[C@H]2CN(CC(=O)Nc2ccccn2)C3)c2ccc(-c3cc(O)cc4ccccc34)cc2n1 = 10 to 100 µM

-- ask Query: IC50; subject: CN1CCC[C@H]1COc1nc(N2C[C@H]3CC[C@@H](C2)N3)c2cc(Cl)c(-c3c(O)cccc3F)c(F)c2n1
-- reply 0.0001 to 10 µM

-- ask # lookup: IC50 of CNCCOc1nc(N2C[C@H]3CC[C@@H](C2)N3)c2ccc(-c3cc(O)cc4ccccc34)cc2n1
-- reply 10 to 100 µM

-- ask What does the data say about its IC50? Entry: CN1CCC[C@H]1COc1nc(N2CC3CCC(C2)N3C(=O)CCCN2CCOCC2)c2ccc(-c3cc(O)cc4ccccc34)c(F)c2n1 (racemic)
-- reply 0.0001 to 10 µM

-- ask Fill in the blank: the reported IC50 of CN1CCC[C@H]1COc1nc(N2C[C@H]3CC[C@@H](C2)N3)c2ccc(-c3cc(N)cc4ccccc34)cc2n1 is ____.
-- reply 0.0001 to 10 µM

-- ask Entry CN1CCC[C@H]1COc1nc(N2C[C@H]3CC[C@@H](C2)N3)c2ccc(-c3ccnc(N)c3)cc2n1 : reported IC50 = ?
-- reply 100 to 1000 µM

-- ask I have this compound here, C#Cc1cccc2[nH]cc(-c3ccc4c(N5C[C@H]6CC[C@@H](C5)N6)nc(OCC56CCCN5CCC6)nc4c3F)c12 , and I need its recorded IC50.
-- reply 0.0001 to 10 µM

-- ask Give its IC50 value. Item: Oc1cc(-c2ccc3c(N4C[C@H]5CC[C@@H](C4)N5)nc(N4C[C@@H](O)[C@H](O)C4)nc3c2F)c2ccccc2c1
-- reply 0.0001 to 10 µM

-- ask Name the recorded IC50 for O=C1N=C(S)SC1CC(=O)N1[C@@H]2CC[C@H]1CN(c1nc(OCC34CCCN3CCC4)nc3c(F)c(-c4cc(O)cc5ccccc45)ccc13)C2 (stereo partly drawn) .
-- reply 0.0001 to 10 µM

-- ask What does the record list as IC50 for Oc1cc(-c2ccc3c(N4C[C@H]5CC[C@@H](C4)N5)nc(OCC45CCCN4CCC5)nc3c2F)c2ccccc2c1 ?
-- reply 0.0001 to 10 µM

-- ask So what does the record say about IC50 for CN1CCC[C@H]1COc1nc(N2C[C@H]3CC[C@@H](C2)N3)c2ccc(-c3c[nH]c4ccc(Cl)cc34)c(F)c2n1 ?
-- reply 0.0001 to 10 µM

-- ask Any idea what IC50 was measured for Cc1cccc2[nH]nc(-c3ccc4c(N5C[C@H]6CC[C@@H](C5)N6)nc(OC[C@@H]5CCCN5C)nc4c3F)c12 ?
-- reply 10 to 100 µM

-- ask Look at this compound and give its reported IC50. CN1CCC[C@H]1COc1nc(N2C[C@H]3CC[C@@H](C2)N3)c2cc(C(=O)O)c(-c3cc(O)cc4ccccc34)c(F)c2n1
-- reply 0.0001 to 10 µM

-- ask // query IC50 value for entry CCN1CCC[C@H]1COc1nc(N2C[C@H]3CC[C@@H](C2)N3)c2ccc(-c3cc(O)cc4ccccc34)cc2n1
-- reply 0.0001 to 10 µM

-- ask Given the entry OCC1CN(c2nc(N3C[C@H]4CC[C@@H](C3)N4)c3ccc(-c4cc(O)cc5ccccc45)c(F)c3n2)CC1O (stereo partly drawn) , report its measured IC50.
-- reply 0.0001 to 10 µM

-- ask Suppose we examine the compound CN1CCC[C@H]1COc1nc(N2[C@@H]3CC[C@H]2CN(C(=O)c2ncc[nH]2)C3)c2ccc(-c3cc(O)cc4ccccc34)cc2n1 ; what IC50 value has been reported?
-- reply 10 to 100 µM

-- ask State the recorded IC50 for this entry: CC(C)C(CO)COc1nc(N2C[C@H]3CC[C@@H](C2)N3)c2ccc(-c3cc(O)cc4ccccc34)c(F)c2n1 (stereo partly drawn)
-- reply 0.0001 to 10 µM

-- ask Would you mind telling me what IC50 value was observed for CCN1CCC(NC(=O)N2C[C@H]3CC[C@@H](C2)N3c2nc(OC[C@@H]3CCCN3C)nc3cc(-c4cc(O)cc5ccccc45)ccc23)C1 (stereo partly drawn) ?
-- reply 10 to 100 µM

-- ask IC50 lookup needed for Oc1cc(-c2ccc3c(N4C[C@H]5CC[C@@H](C4)N5)nc(OC4CCC(O)CC4)nc3c2F)c2ccccc2c1 (stereo partly drawn) , thanks.
-- reply 0.0001 to 10 µM

-- ask Look up IC50 for this compound: Oc1cc(-c2ccc3c(N4C[C@H]5CC[C@@H](C4)N5)nc(OCC45CCCCN4CCCC5)nc3c2)c2ccccc2c1
-- reply 0.0001 to 10 µM

-- ask So what's the measured IC50 for this one? CN1CCC[C@H]1COc1nc(N2C[C@H]3C[C@@H]2CN3)c2cc(Cl)c(-c3cc(O)cc4ccccc34)c(F)c2n1
-- reply 0.0001 to 10 µM
